Just for reference, PubChem BioAssay AID2677 is where these values come from.

Items are presented alongside their recorded Potency.
- Target Or System: Lysine-specific demethylase 4E (Homo sapiens) (UniProt B2RXH2)
- Sequence (B2RXH2 1-337 limits assumed): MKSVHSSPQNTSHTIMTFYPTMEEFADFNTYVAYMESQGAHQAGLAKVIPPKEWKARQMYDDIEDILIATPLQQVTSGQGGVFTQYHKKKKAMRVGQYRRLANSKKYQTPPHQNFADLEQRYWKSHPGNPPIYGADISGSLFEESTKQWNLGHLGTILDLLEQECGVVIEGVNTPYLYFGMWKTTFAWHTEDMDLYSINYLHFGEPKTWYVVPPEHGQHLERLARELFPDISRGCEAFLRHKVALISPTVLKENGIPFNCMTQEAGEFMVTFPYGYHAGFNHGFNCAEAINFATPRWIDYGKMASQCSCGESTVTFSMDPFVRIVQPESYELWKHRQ
- Run Description: Confirmation qHTS Assay for Inhibitors of Human Jumonji Domain Containing 2E (JMJD2E)
- Condition: Recombinant JMJD2E, FDH-coupled NADH fluorescence (FDH is formaldehyde dehydrogenase)
- Source text: The fine interplay among methylation states of several lysine residues on the tails of histone proteins is a major determinant of the transcriptional state of the associated DNA coding regions and is commonly referred to as the histone code. Histone lysine demethylases catalyze the removal of methyl groups from methylated lysine sidechains on histones H3 and H4, thus antagonizing the reactions catalyzed by histone lysine methyltransferases. […]
The list shows a part of the results. Inconclusive results are not listed. The source made the active and inactive calls. Calls come from the whole dose curve; as a rule, active = well fitted inhibition curve with a large enough effect; inconclusive = small, poorly fitted or top-dose-only effect; inactive = no such curve, though single readings can be large or run the other way.

| Compound | Potency |
| --- | --- |
| Oc1ccc(/C=C/c2c(F)cccc2F)c2cccnc12 | 9.13 µM (active) |
| O=C1CC(Sc2ncn[nH]2)C(=O)N1c1ccccc1 (centres undefined) | 7.08 µM (active) |
| Cc1ccc(N2C(=O)CC(Sc3ncn[nH]3)C2=O)cc1 (centres undefined) | 5.01 µM (active) |
| Oc1c(CN2CCCC2)cc(COCc2ccccc2)c2cccnc12 | 5.01 µM (active) |
